test: soluble on expression in E. coli; label from the status in PepcDB or PDB records
Experimental Readout: soluble on expression in E. coli

1) MSRFTDKVAIITGSSNGIGQATARLLASEGAKVTVTGRNAERLEETKNILLGAGVPEGNVLVVVGDITQESVQENLIKSTLDKFGKIDILVNNAGAGIPDAQGKSGVNQSIDTYHKTFELNVQSVIEMTQKARPHLAKTQGEIVNISSIGAGPAAQVASPYYSIAKAALDQYTRTAAIDLVPEGIRVNSVSPGAVSTGFSAVSRGLTEEKSKAFYDYLGAQRECIPRGFCAVPEDIAKVIAFLADRNASNYIIGQTIVADGGTSLILGAHAHGAKMMQAVFKEL	not soluble
2) MKRDGHTHTEFCPHGTHDDVEEMILKAIELDFDEYSIVEHAPLSSEFMKNTAGNQEAVTTASMSMSDLPYYFKKMNQMKKKYASDLLIHIGFEVDYLIGYEDFTRDFLNEYGPQTDDGVLSLHFLEGQGGFRSIDFTAEDYNEGIVQFYGGFEQAQLVYLAGVKQSIEADLGAFKPRRIGHISLCQKFQQFFGADGRDFTAEVIAEFEAILALVKKRGYELDFNTAGLFKPLCKETYPPKEIVTLARALEIPFVYGSDSHGVADIGRGYNTYCQK	not soluble
3) MQRHTLPLRPLLGTLLLGLLLAGCDASRDDATALGPVPIASGDECHVCGMLIEEMPGPKGESVLPGAVRKFCSTAELFGWWLQPENRQGQARLYVHDMSQADWRHPDDARLIDATRAYYVVGIQRPGGMGATLASFADEEAATRLAAEEGGRVLRFDEIDQAVLQGVGGDHPHRHPAH	not soluble
